# key: entry, value: Kp
Assay: Brain-to-plasma ratio in rats
Conditions: Sprague-Dawley, rat, brain and plasma, oral
Output spec: single numeric token, no unit.

| COMPOUND | READING |
| --- | --- |
| O=C1NC(=O)C(c2ccccc2)(c2ccccc2)N1 | 0.83 |
| CCCC(CCC)C(=O)O | 0.24 |

Just so you know, measured Kp for NC(=O)N1c2ccccc2C=Cc2ccccc21 [CBZ, carbamazepine] came out at 1.03

====

# key: entry, value: EC50
System: MES-induced seizures
Assay: Alternating current maximal electroshock seizure assay (AC-MES) in rats with plasma and brain exposure
Type: in vivo, Sprague-Dawley rats
Conditions: Rattus norvegicus, read-out: EC50 Brain
Description: Animals were group-housed (2–4 mice or 3–4 rats per cage) in plastic cages and maintained under controlled temperature (18–25 °C), humidity, ventilation, and lighting (12 h light/dark cycle). […] The protocols for administering PO or IP doses of the vehicle or drug are described in Table 1. […] An animal was considered protected from MES-induced seizures if the hindlimb tonic extensor component of the seizure was abolished, and it was scored as “0”. […]
Numbers only; they are read as µM.

In the examples that follow, each entry is paired with its recorded EC50.
| COMPOUND | EC50 / µM |
| --- | --- |
| NC(=O)O[C@@H](Cn1ncnn1)c1ccccc1Cl [CNB, cenobamate] | 10.7 |
| COC[C@@H](NC(C)=O)C(=O)NCc1ccccc1 [LSM, lacosamide] | 12.2 |

Just so you know, measured EC50 for CCCC(CCC)C(=O)O came out at 307
